- condition description: in acetone, 323.15 K
endpoint: solubility (mole fraction)
Numbers only.

Task: State its solubility (mole fraction) for this molecule: Cl.N[C@@H](Cc1ccccc1)C(=O)OCc1ccccc1
Output: 0.000511

----------
- condition description: in acetone, 303.15 K
endpoint: solubility (mole fraction)

Task: State its solubility (mole fraction) for this molecule: Cl.N[C@@H](Cc1ccccc1)C(=O)OCc1ccccc1
Output: 0.000224

----------
- condition description: in methanol, 323.15 K
endpoint: solubility (mole fraction)
Numbers only.

Task: State its solubility (mole fraction) for this compound: Cl.N[C@@H](Cc1ccccc1)C(=O)OCc1ccccc1
Output: 0.0324

----------
- condition description: in isobutanol, 323.15 K
endpoint: solubility (mole fraction)
Numbers only.

Task: State its solubility (mole fraction) for this molecule: Cl.N[C@@H](Cc1ccccc1)C(=O)OCc1ccccc1
Output: 0.00256

----------
- condition description: in acetonitrile, 303.15 K
endpoint: solubility (mole fraction)
Give bare numbers.

Task: State its solubility (mole fraction) for this compound: Cl.N[C@@H](Cc1ccccc1)C(=O)OCc1ccccc1
Output: 0.000365

----------
- condition description: in methanol, 303.15 K
endpoint: solubility (mole fraction)

Task: State its solubility (mole fraction) for this compound: Cl.N[C@@H](Cc1ccccc1)C(=O)OCc1ccccc1
Output: 0.0223

----------
- condition description: in n-pentanol, 323.15 K
endpoint: solubility (mole fraction)
One number for each entry.

Task: State its solubility (mole fraction) for this molecule: Cl.N[C@@H](Cc1ccccc1)C(=O)OCc1ccccc1
Output: 0.00307

----------
- condition description: in isobutanol, 303.15 K
endpoint: solubility (mole fraction)
Give bare numbers.

Task: State its solubility (mole fraction) for this compound: Cl.N[C@@H](Cc1ccccc1)C(=O)OCc1ccccc1
Output: 0.00121

----------
- condition description: in ethanol, 293.15 K
endpoint: solubility (mole fraction)

Task: State its solubility (mole fraction) for this compound: Cl.N[C@@H](Cc1ccccc1)C(=O)OCc1ccccc1
Output: 0.00396

----------
- condition description: in n-butanol, 293.15 K
endpoint: solubility (mole fraction)
Give bare numbers.

Task: State its solubility (mole fraction) for this compound: Cl.N[C@@H](Cc1ccccc1)C(=O)OCc1ccccc1
Output: 0.0015

----------
- condition description: in n-propanol, 283.15 K
endpoint: solubility (mole fraction)
Answers are plain numbers.

Task: State its solubility (mole fraction) for this compound: Cl.N[C@@H](Cc1ccccc1)C(=O)OCc1ccccc1
Output: 0.00168

----------
- condition description: in ethyl acetate, 288.15 K
endpoint: solubility (mole fraction)
Answers are plain numbers.

Task: State its solubility (mole fraction) for this molecule: Cl.N[C@@H](Cc1ccccc1)C(=O)OCc1ccccc1
Output: 2.6e-05

----------
- condition description: in acetone, 313.15 K
endpoint: solubility (mole fraction)
Answers are plain numbers.

Task: State its solubility (mole fraction) for this compound: Cl.N[C@@H](Cc1ccccc1)C(=O)OCc1ccccc1
Output: 0.000347

----------
- condition description: in isobutanol, 313.15 K
endpoint: solubility (mole fraction)

Task: State its solubility (mole fraction) for this molecule: Cl.N[C@@H](Cc1ccccc1)C(=O)OCc1ccccc1
Output: 0.00174

----------
- condition description: in methanol, 313.15 K
endpoint: solubility (mole fraction)
Give bare numbers.

Task: State its solubility (mole fraction) for this molecule: Cl.N[C@@H](Cc1ccccc1)C(=O)OCc1ccccc1
Output: 0.0274

----------
- condition description: in n-pentanol, 293.15 K
endpoint: solubility (mole fraction)
Answers are plain numbers.

Task: State its solubility (mole fraction) for this compound: Cl.N[C@@H](Cc1ccccc1)C(=O)OCc1ccccc1
Output: 0.00103

----------
- condition description: in isopropanol, 323.15 K
endpoint: solubility (mole fraction)

Task: State its solubility (mole fraction) for this molecule: Cl.N[C@@H](Cc1ccccc1)C(=O)OCc1ccccc1
Output: 0.00178

----------
- condition description: in isopropanol, 313.15 K
endpoint: solubility (mole fraction)
Answers are plain numbers.

Task: State its solubility (mole fraction) for this compound: Cl.N[C@@H](Cc1ccccc1)C(=O)OCc1ccccc1
Output: 0.00123

----------
- condition description: in water, 313.15 K
endpoint: solubility (mole fraction)
Answers are plain numbers.

Task: State its solubility (mole fraction) for this compound: Cl.N[C@@H](Cc1ccccc1)C(=O)OCc1ccccc1
Output: 0.00197

----------
- condition description: in water, 293.15 K
endpoint: solubility (mole fraction)
Give bare numbers.

Task: State its solubility (mole fraction) for this compound: Cl.N[C@@H](Cc1ccccc1)C(=O)OCc1ccccc1
Output: 0.0012

----------
- condition description: in n-butanol, 323.15 K
endpoint: solubility (mole fraction)
Answers are plain numbers.

Task: State its solubility (mole fraction) for this molecule: Cl.N[C@@H](Cc1ccccc1)C(=O)OCc1ccccc1
Output: 0.0039

----------
- condition description: in acetonitrile, 288.15 K
endpoint: solubility (mole fraction)
Answers are plain numbers.

Task: State its solubility (mole fraction) for this compound: Cl.N[C@@H](Cc1ccccc1)C(=O)OCc1ccccc1
Output: 0.000115

----------
- condition description: in ethyl acetate, 313.15 K
endpoint: solubility (mole fraction)
Give bare numbers.

Task: State its solubility (mole fraction) for this compound: Cl.N[C@@H](Cc1ccccc1)C(=O)OCc1ccccc1
Output: 0.000116

----------
- condition description: in n-propanol, 303.15 K
endpoint: solubility (mole fraction)
Numbers only.

Task: State its solubility (mole fraction) for this compound: Cl.N[C@@H](Cc1ccccc1)C(=O)OCc1ccccc1
Output: 0.00281

----------
- condition description: in isobutanol, 293.15 K
endpoint: solubility (mole fraction)
Give bare numbers.

Task: State its solubility (mole fraction) for this compound: Cl.N[C@@H](Cc1ccccc1)C(=O)OCc1ccccc1
Output: 0.000879

----------
- condition description: in acetonitrile, 298.15 K
endpoint: solubility (mole fraction)
Answers are plain numbers.

Task: State its solubility (mole fraction) for this molecule: Cl.N[C@@H](Cc1ccccc1)C(=O)OCc1ccccc1
Output: 0.000262

----------
- condition description: in water, 323.15 K
endpoint: solubility (mole fraction)
Give bare numbers.

Task: State its solubility (mole fraction) for this compound: Cl.N[C@@H](Cc1ccccc1)C(=O)OCc1ccccc1
Output: 0.00266

----------
- condition description: in ethanol, 303.15 K
endpoint: solubility (mole fraction)
One number for each entry.

Task: State its solubility (mole fraction) for this compound: Cl.N[C@@H](Cc1ccccc1)C(=O)OCc1ccccc1
Output: 0.00491

----------
- condition description: in n-butanol, 303.15 K
endpoint: solubility (mole fraction)

Task: State its solubility (mole fraction) for this compound: Cl.N[C@@H](Cc1ccccc1)C(=O)OCc1ccccc1
Output: 0.00191

----------
- condition description: in acetonitrile, 283.15 K
endpoint: solubility (mole fraction)

Task: State its solubility (mole fraction) for this molecule: Cl.N[C@@H](Cc1ccccc1)C(=O)OCc1ccccc1
Output: 5.4e-05

----------
- condition description: in water, 283.15 K
endpoint: solubility (mole fraction)
Give bare numbers.

Task: State its solubility (mole fraction) for this compound: Cl.N[C@@H](Cc1ccccc1)C(=O)OCc1ccccc1
Output: 0.000969
